Origin of values: ChEMBL document CHEMBL1137864

Target: Melanocortin receptor (M3 and M4) (Homo sapiens) (UniProt P32245+P41968)
Experiment: Ratio of EC50 of Melanocortin 4 receptor to that of Melanocortin 3 receptor
Type: protein assay
Each record's class is read off its Ratio using these ranges: zone 1 (below 4), zone 2 (4 to below 20), zone 3 (20 or more)

1. CCC(=O)N[C@@H](Cc1ccc(Cl)cc1)C(=O)NC(Cc1ccccc1)C(=O)N[C@@H](CCCN=C(N)N)C(=O)N[C@@H](Cc1c[nH]c2ccccc12)C(N)=O (stereo in doubt); zone 2
2. N=C(N)NCCC[C@H](NC(=O)C(Cc1ccccc1)NC(=O)[C@H](Cc1ccc(Cl)cc1)NC(=O)C1CC1)C(=O)N[C@@H](Cc1c[nH]c2ccccc12)C(N)=O (stereo in doubt); zone 2
3. N=C(N)NCCC[C@H](NC(=O)C(Cc1ccccc1)NC(=O)[C@H](Cc1ccc(Cl)cc1)NC(=O)c1ccccn1)C(=O)N[C@@H](Cc1c[nH]c2ccccc12)C(N)=O (stereo in doubt); zone 2
4. N=C(N)NCCC[C@H](NC(=O)C(Cc1ccccc1)NC(=O)[C@H](Cc1ccc(Cl)cc1)NC(=O)CNC=O)C(=O)N[C@@H](Cc1c[nH]c2ccccc12)C(N)=O (stereo in doubt); zone 3
5. CSCC(=O)N[C@@H](Cc1ccc(Cl)cc1)C(=O)NC(Cc1ccccc1)C(=O)N[C@@H](CCCN=C(N)N)C(=O)N[C@@H](Cc1c[nH]c2ccccc12)C(N)=O (stereo in doubt); zone 3
6. CC(=O)N[C@@H](Cc1c[nH]cn1)C(=O)NC(Cc1ccccc1)C(=O)NC(Cc1ccccc1)C(=O)N[C@@H](CCCN=C(N)N)C(=O)N[C@@H](Cc1c[nH]c2ccccc12)C(N)=O (stereo in doubt); zone 1
7. N=C(N)NCCC[C@H](NC(=O)C(Cc1ccccc1)NC(=O)[C@H](Cc1ccc(Cl)cc1)NC(=O)CCCC(=O)c1ccccc1)C(=O)N[C@@H](Cc1c[nH]c2ccccc12)C(N)=O (stereo in doubt); zone 1
8. N#CCC(=O)N[C@@H](Cc1ccc(Cl)cc1)C(=O)NC(Cc1ccccc1)C(=O)N[C@@H](CCCNC(=N)N)C(=O)N[C@@H](Cc1c[nH]c2ccccc12)C(N)=O (stereo in doubt); zone 3
9. N=C(N)NCCC[C@H](NC(=O)C(Cc1ccccc1)NC(=O)[C@H](Cc1ccc(Cl)cc1)NC(=O)Cc1ccccc1)C(=O)N[C@@H](Cc1c[nH]c2ccccc12)C(N)=O (stereo in doubt); zone 1
